Assayed System: RORγ ligand binding domain (LBD) (Homo sapiens, UniProt P51449)
Construct: made in house; host or cells: E. coli BL-21 (BL3), vector pDEST15
Sequence (P51449 269-508 limits assumed): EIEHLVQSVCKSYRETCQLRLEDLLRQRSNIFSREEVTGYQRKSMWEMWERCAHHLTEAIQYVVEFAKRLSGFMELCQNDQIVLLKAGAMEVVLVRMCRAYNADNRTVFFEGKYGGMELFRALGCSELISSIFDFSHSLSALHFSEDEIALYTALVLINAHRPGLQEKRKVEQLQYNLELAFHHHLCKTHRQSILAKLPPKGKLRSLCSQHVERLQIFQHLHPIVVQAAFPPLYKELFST
Test Summary: TR-FRET Activity Assay (ligand sensing, RORγ-LBD / coactivator peptide interaction, LANCE)
Type: biochemical
Measurement Parameters: first value of the cell FRET/FF/REN; TR-FRET activity assay; read-out: pIC50 (FRET) (converted)
Test Readout: IC50 (nM)

1. Cc1c(C(=O)NC2CCOCC2)cc(-c2ccc(S(=O)(=O)NCC(F)(F)F)c(C(F)(F)F)c2)n1CC1CCCCC1
2. Cc1c(C(=O)N[C@H]2C[C@H](C(=O)O)C2)cc(-c2ccc(-c3nnc(C(C)(C)C)o3)c(C(C)(C)C)c2)n1CC1CCCCC1
3. Cc1c(C(=O)NC2CCOCC2)cc(-c2ccc(S(=O)(=O)NC(C)(C)C)c(C(F)(F)F)c2)n1C1CC12CCCC2 (stereo not shown)
4. Cc1c(C(=O)NC2CCOCC2)cc(-c2ccc(S(=O)(=O)NC(C)(C)C)c(C(F)F)c2)n1CC1CCC1
Incoming: Which order do these items fall in when sorted by IC50 from largest to smallest? Labels, ranked as asked.
Outgoing: 2, 3, 4, 1

1. Cc1c(C(=O)NC2C[S+]([O-])C2)cc(-c2cc(C(C)C)c3c(c2)C(C)(C)N(C(C)C)S3(=O)=O)n1CC1CCCCC1 (stereo not shown)
2. CC(C)(C)c1cc(-c2cc(C(=O)N[C@H]3C[C@H](C(=O)O)C3)c(F)n2CC2CCCCC2)cc(C2(C)CC2)c1
Incoming: Consider entries 1 and 2 . Which has the numerically lower IC50? Selection: enter the item's label.
Outgoing: 2
(2: 631 nM, 1: 1580 nM)

----------
Assayed System: RORγ (UniProt P51449)
Sequence (P51449 1-518): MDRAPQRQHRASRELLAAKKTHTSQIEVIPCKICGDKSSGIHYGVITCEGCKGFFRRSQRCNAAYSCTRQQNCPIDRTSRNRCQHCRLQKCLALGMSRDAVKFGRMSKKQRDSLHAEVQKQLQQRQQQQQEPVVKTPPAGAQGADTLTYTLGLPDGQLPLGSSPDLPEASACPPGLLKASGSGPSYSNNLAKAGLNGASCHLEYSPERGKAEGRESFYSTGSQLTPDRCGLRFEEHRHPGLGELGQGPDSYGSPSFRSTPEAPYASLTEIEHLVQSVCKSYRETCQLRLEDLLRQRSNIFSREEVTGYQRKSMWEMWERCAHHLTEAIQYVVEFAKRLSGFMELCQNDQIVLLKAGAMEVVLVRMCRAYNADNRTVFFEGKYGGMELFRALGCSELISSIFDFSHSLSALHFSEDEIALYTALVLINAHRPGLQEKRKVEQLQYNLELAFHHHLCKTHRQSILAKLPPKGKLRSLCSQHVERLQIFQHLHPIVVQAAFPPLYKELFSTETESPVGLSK
Test Summary: RORγ Gal4 Reporter Gene Assay in 293T cells (firefly and renilla luciferase)
Type: cell-based, human
Measurement Parameters: third value of the cell; Gal4 reporter gene assay in 293T cells, renilla normalised luciferase
Test Readout: pIC50 (REN)

Molecule | Value
Cc1c(C(=O)N[C@H]2C[C@H](C(=O)O)C2)cc(-c2cc(Cl)cc(C3(C)CC3)c2)n1CC1CCCCC1 [17/299] | 7.5
Cc1c(C(=O)N[C@H]2C[C@](C)(C(=O)O)C2)cc(-c2ccc(S(=O)(=O)NC(C)(C)C)c(C(F)F)c2)n1CC1CCCCC1 [17/170] | 7.0
Cc1c(C(=O)NC2CCOCC2)cc(C2=NN(C(=O)NC(C)(C)C)C3(CCCCC3)C2)n1CC1CCCCC1 [Example 24] | 6.4
CC(=NO)c1cc(-c2cc(C(=O)NC3CCOCC3)c(C)n2CC2CCCCC2)cc(C(C)(C)C)c1 [18/1] | 7.7
Cc1c(C(=O)NCCC(C)(C)C(=O)O)cc(-c2ccc(S(=O)(=O)NC(C)(C)C)c(OC(F)F)c2)n1CC1CCCCC1 [17/167] | 6.8
Cc1c(C(=O)N[C@H]2C[C@H](C(=O)O)C2)cc(-c2ccc(S(=O)(=O)NC(C)(C)C)c3c2CCCC3)n1CC1CCCCC1 [17/281] | 7.7
Cc1c(C(=O)NC2COC2)cc(-c2ccc(C(=O)N3CCCCC3)c(C(C)(C)C)c2)n1CC1CCCCC1 [1/34] | 6.7
Cc1c(C(=O)NCC2(C(N)=O)CCOCC2)cc(-c2cc(C(C)(C)C)cc(C3(C)CC3)c2)n1CC1CCCCC1 [17/62] | 8.3
Cc1c(C(=O)NC2CCOCC2)cc(-c2cc(S(=O)(=O)N3CCCCC3)c3ccccn23)n1CC1CCCCC1 [17/96] | 7.0
CC(C)(C)NS(=O)(=O)c1ccc(-c2cc(C(=O)NC3CCOCC3)c(CF)n2CC2CCCCC2)cc1C(C)(C)C [17/118] | 6.5
Cc1c(C(=O)NC2CCOCC2)cc(-c2ccc(S(=O)(=O)NC3CCC3)c(C(C)(C)C)c2)n1CC1CCCCC1 [17/228] | 7.7
Cc1c(C(=O)NCC2COC2)cc(-c2cc(C(C)(C)C)cc(C(C)(C)C)c2)n1CC1CCCCC1 [17/43] | 7.4
Cc1c(C(=O)NC2COC2)cc(-c2cc(C(=O)NC(C)C)cc(C(F)(F)F)c2)n1CC1CCCCC1 [15/2] | 6.3
Cc1c(C(=O)N2CC3(COCC(=O)N3)C2)cc(-c2ccc(S(=O)(=O)NC(C)(C)C)c(C(F)(F)F)c2)n1CC1CCCCC1 [17/293] | 6.7
Cc1c(C(N)=O)cc(-c2cc(C(C)(C)C)cc(C3(C)CC3)c2)n1CC1CCCCC1 [1/89] | 6.2
Cc1c(C(=O)NCC(C)(C)C(=O)O)cc(-c2ccc(S(=O)(=O)NC(C)(C)C)c(C(C)(C)O)c2)n1CC1CCCCC1 [17/327] | 6.9
Cc1c(C(=O)NC2CCOCC2)cc(-c2ccc(S(=O)(=O)N[C@H](C)C(F)(F)F)c(C(F)(F)F)c2)n1CC1CCCCC1 [17/142] | 7.6
Cc1c(C(=O)NCCC(C)(C)C(=O)O)cc(-c2ccc(S(=O)(=O)NC(C)(C)C(F)(F)F)c(C(F)(F)F)c2)n1CC1CCCCC1 [17/161] | 7.6
Cc1c(C(=O)NCC(C)(C)C(N)=O)cc(-c2cc(C(C)(C)C)c3c(c2)C2(CCO3)CC2)n1CC1CCCCC1 [1/98] | 7.3
Cc1c(C(=O)NCCC(C)(C)C(=O)O)cc(-c2ccc(S(=O)(=O)NC(C)(C)C)c(C(C)(C)C)c2)n1CC1CCCCC1 [17/163] | 7.2
Cc1c(C(=O)NC2CCOCC2)cc(-c2ccc(CN3CCOCC3)c(C(F)(F)F)c2)n1CC1CCCCC1 [Example 33] | 6.3
Cc1c(C(=O)NCC(C)(C)C(=O)O)cc(-c2ccc(S(=O)(=O)NC(C)(C)C)c(C(F)(F)F)c2)n1CC1CCCCC1 [17/200] | 6.9
Cc1c(C(=O)NCC(C)(C)O)cc(-c2ccc(S(=O)(=O)N(C)C(C)(C)C)c(C(C)(C)C)c2)n1CC1CCCCC1 [9/9] | 7.3
Cc1c(C(=O)NCC2CCS(=O)(=O)C2)cc(-c2cc(C(C)(C)C)c3c(c2)C2(CCO3)CC2)n1CC1CCCCC1 (stereo not shown) [17/12] | 7.4
Cc1c(C(=O)NCC(C)(C)O)cc(-c2cc(C(C)(C)C)cc(S(=O)(=O)N(C)C(C)(C)C)c2)n1CC1CCCCC1 [9/3] | 7.1
Cc1c(S(=O)(=O)NC(C)(C)C)ccc(-c2cc(C(=O)NCC(C)(C)C(N)=O)c(C)n2CC2CCCCC2)c1Cl [17/371] | 8.0
Cc1c(C(=O)NCC2(O)CCOCC2)cc(-c2ccc(S(=O)(=O)NC(C)(C)C)c3ccccc23)n1CC1CCCCC1 [17/239] | 8.1
CNC(=O)C(C)(C)CNC(=O)c1cc(-c2cc(C(C)(C)C)c3c(c2)C2(CCO3)CC2)n(CC2CCCCC2)c1C [Example 11/1] | 7.3

// data source = patent US9815851B2
